Biological target: T1, regulatory-associated protein of mTOR (RAPTOR) (UniProt Q8N122 1-1335)
T1 construct: RAPTOR, regulatory-associated protein of mTOR; purified protein; Construct, host and tags are in SI Appendix, Material and Methods; In the cryo-EM rows RAPTOR stood as a subunit of mTORC1; source: purified
T1 sequence (Q8N122 whole entry): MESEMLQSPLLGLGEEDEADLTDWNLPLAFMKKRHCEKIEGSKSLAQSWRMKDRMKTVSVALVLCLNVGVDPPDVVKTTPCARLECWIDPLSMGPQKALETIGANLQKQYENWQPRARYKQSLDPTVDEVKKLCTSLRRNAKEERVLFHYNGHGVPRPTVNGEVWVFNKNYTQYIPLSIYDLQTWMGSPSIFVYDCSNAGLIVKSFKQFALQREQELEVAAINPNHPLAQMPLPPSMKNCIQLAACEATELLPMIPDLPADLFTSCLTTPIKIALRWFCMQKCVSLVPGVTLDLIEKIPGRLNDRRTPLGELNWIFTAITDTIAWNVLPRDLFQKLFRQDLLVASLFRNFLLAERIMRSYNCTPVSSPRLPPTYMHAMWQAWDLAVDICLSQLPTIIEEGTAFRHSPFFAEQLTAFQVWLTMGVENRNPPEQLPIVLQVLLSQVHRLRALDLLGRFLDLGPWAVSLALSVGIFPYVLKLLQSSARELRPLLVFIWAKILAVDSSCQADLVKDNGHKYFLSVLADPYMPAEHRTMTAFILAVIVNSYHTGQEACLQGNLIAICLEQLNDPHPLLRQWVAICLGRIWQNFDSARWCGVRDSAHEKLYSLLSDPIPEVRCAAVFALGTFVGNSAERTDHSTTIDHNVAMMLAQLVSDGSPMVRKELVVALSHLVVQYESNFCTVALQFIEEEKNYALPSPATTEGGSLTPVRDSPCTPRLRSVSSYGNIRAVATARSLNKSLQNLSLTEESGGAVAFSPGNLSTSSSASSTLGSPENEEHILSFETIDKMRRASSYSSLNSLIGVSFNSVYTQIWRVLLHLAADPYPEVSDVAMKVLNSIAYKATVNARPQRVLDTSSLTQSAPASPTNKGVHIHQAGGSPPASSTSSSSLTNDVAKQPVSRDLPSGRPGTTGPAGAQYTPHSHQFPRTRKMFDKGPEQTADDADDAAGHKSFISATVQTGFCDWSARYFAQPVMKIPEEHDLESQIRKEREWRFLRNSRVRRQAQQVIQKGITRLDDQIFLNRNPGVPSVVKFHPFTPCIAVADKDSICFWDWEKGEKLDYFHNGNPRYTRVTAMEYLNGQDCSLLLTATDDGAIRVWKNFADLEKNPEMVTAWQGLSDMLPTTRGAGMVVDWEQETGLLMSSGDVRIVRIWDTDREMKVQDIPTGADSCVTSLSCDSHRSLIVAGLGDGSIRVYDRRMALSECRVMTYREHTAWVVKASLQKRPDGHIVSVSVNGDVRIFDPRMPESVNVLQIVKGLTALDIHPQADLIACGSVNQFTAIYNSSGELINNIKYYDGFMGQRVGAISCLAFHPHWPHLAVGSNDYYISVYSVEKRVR
Assay: fluorescence polarisation; fluorescence anisotropy; purified RAPTOR with N-terminally FITC-labeled synthetic LST2 TOS peptides; N = 3
Conditions: both partners purified
Where no end group is shown, it is not given here. The star is where a group is joined. FITC = O=C1OC2(c3ccc(O)cc3Oc3cc(O)ccc32)c2ccc(NC(=S)*)cc21
Reported metric: pKd
pKd here: minus log base 10 of the concentration, concentration in moles per litre.

For the binder shown here, {FITC}-DEEERVFFMDDVE (peptide, UniProt Q9HCC9 395-407, looked up, also called LST2 TOS peptide WT; FITC-labeled peptide; source: synthetic peptide) [FITC-labeled LST2 TOS peptide including flanking residues (amino acids 395 to 407)] , give the reported pKd.
6.48
